# Tested on: hGLP-1R (Homo sapiens, UniProt P43220)
# Sequence (P43220 24-463): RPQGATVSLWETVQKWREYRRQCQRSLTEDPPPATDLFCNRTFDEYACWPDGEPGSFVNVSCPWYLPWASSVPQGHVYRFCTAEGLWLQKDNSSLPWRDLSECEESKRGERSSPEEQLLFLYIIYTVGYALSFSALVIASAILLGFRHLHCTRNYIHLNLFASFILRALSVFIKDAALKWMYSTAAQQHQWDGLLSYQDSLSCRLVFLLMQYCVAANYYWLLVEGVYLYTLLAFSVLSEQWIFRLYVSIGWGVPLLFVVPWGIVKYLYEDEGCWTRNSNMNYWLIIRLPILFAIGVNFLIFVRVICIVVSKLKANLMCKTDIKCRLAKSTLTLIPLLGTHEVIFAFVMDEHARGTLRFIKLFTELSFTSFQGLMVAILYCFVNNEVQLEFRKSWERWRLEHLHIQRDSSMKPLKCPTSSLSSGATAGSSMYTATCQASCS
# Experimental details: Functional cAMP activation in the presence of 0.1% casein (no HSA);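 also: intracellular cAMP rise after 30 min at 37 °C read by HTRF, normalized between buffer only (0%) and maximal control ligand (100%), four-parameter variable-slope fit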
# Type: cell-based
# Assay context: in the presence of 0.1% casein (no HSA); geometric mean; read-out: Relative cAMP EC50, hGLP-1R
pEC50: −log10 of the molar value. Starred links: 1 amine or outer side, 2 acyl side, 3 side chain; linkers in the order of their positions; H or OH if unused. Non-standard residues stand in square brackets, D forms with d. Groups on a side chain read outwards from the residue. *: point of attachment. C18 diacid = O=C(O)CCCCCCCCCCCCCCCCC(=O)*; γGlu = O=C(O)[C@H](CCC(=O)[*:2])N[*:1]; NMeY = CN[C@@H](Cc1ccc(O)cc1)C(=O)O; αMe4Pal = C[C@](N)(Cc1ccncc1)C(=O)O; αMeY = C[C@](N)(Cc1ccc(O)cc1)C(=O)O; 4Pal = N[C@@H](Cc1ccncc1)C(=O)O; αMeL = CC(C)C[C@](C)(N)C(=O)O; αMeS = C[C@](N)(CO)C(=O)O; Orn = NCCC[C@H](N)C(=O)O; AEEA = NCCOCCOCC(=O)O; Aib = CC(C)(N)C(=O)O
Below, each entry is listed alongside its reported pEC50.
Endpoint label: pEC50

Substance | Observed value
H-Y[Aib]QGTFTSD[4Pal]SQ[αMeL]LDKK([γGlu-γGlu-C18 diacid])AQ[αMe4Pal]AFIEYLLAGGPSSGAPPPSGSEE-NH2 [Example 1036] | 8.16
H-[NMeY][Aib]QGTFTSD[4Pal][αMeS]Q[αMeL]LD[Orn]K([dE-γGlu-C18 diacid])AQ[αMe4Pal]QFIQ[αMeY]LIE[Aib]GPSSGAPPPSGGGE-NH2 [Example 1134] | 9.02
H-Y[Aib]QGTFTSDFS[Orn][αMeL]LDKK([AEEA-γGlu-C18 diacid])AQ[Aib]AFIEWLLEGGTSSGAPPPSGE-NH2 [Example 175] | 8.40

###

Reported pEC50 values for the following substances.
# Tested on: hGIPR (Homo sapiens, UniProt P48546)
# Sequence (P48546 22-466): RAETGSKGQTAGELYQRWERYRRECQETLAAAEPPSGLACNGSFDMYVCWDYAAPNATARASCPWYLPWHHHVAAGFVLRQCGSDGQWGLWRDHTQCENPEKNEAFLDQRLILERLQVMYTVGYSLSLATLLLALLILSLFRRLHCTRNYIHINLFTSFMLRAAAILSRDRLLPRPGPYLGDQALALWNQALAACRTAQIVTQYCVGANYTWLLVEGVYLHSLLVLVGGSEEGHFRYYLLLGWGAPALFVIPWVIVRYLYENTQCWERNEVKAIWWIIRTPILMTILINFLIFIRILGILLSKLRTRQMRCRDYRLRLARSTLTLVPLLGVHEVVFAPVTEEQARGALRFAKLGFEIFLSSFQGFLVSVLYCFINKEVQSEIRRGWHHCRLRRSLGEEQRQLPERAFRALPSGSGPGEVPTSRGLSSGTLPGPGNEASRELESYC
# Experimental details: Functional cAMP activity in the presence of 1% HSA
# Assay type: cell-based
pEC50: −log10 of the molar value. Starred links: 1 amine or outer side, 2 acyl side, 3 side chain; linkers in the order of their positions; H or OH if unused. Non-standard residues stand in square brackets, D forms with d. Groups on a side chain read outwards from the residue. *: point of attachment. C20 diacid = O=C(O)CCCCCCCCCCCCCCCCCCC(=O)*; C18 diacid = O=C(O)CCCCCCCCCCCCCCCCC(=O)*; γGlu = O=C(O)[C@H](CCC(=O)[*:2])N[*:1]; αMe4Pal = C[C@](N)(Cc1ccncc1)C(=O)O; αMeL = CC(C)C[C@](C)(N)C(=O)O; AEEA = NCCOCCOCC(=O)O; Aib = CC(C)(N)C(=O)O
Endpoint label: pEC50

Substance | Observed value
H-Y[Aib]QGTFTSDFSR[αMeL]LDKK([AEEA-γGlu-C18 diacid])AQ[αMe4Pal]AFIEYLIE[Aib]GESSGAPPPSGE-NH2 [Example 231] | 7.56
H-Y[Aib]QGTFTSDFSK[αMeL]LDKK([AEEA-γGlu-C20 diacid])AQQAFIEYLLA[Aib]GPSSGEPPPSEG-NH2 [Example 19] | 7.18
H-Y[Aib]QGTFTSDYSI[αMeL]LDKQAAK([AEEA-AEEA-γGlu-C20 diacid])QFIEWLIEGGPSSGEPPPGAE-NH2 [Example 319] | 7.22
